- assay-system: Gal4S(b1-4)GlcNAc
- experiment-notes: glycan array binding signal (z-score within array); higher = stronger binding
- condition-label: glycan notation: IUPAC condensed, linker removed
This excerpt belongs to a sample that is enriched for the strongest signals.
quantity-name: glycan array binding signal (z-score)

1. CLEC9a (Mus musculus), Q8BRU4 (protein) MHAEEIYTSLQWDIPTSEASQKCQSPSKCSGAWCVVTMISCVVCMGLLATSIFLGIKFFQVSSLVLEQQERLIQQDTALVNLTQWQRKYTLEYCQALLQRSLHSGSDCSPCPHNWIQNGKSCYYVFERWEMWNISKKSCLKEGASLFQIDSKEEMEFISSIGKLKGGNKYWVGVFQDGISGSWFWEDGSSPLSDLLPAERQRSAGQICGYLKDSTLISDKCDSWKYFICEKKAFGSCI; 1.88
2. ECL (Erythrina cristagalli), Q6YD91 (protein) VETISFSFSEFEPGNNDLTLQGAAIITQSGVLQLTKINQNGMPAWDSTGRTLYTKPVHIWDMTTGTVASFETRFSFSIEQPYTRPLPADGLVFFMGPTKSKPAQGYGYLGVFNNSKQDNSYQTLAVEFDTFSNPWDPPQVPHIGIDVNSIRSIKTQPFQLDNGQVANVVIKYDASSKILLAVLVYPSSGAIYTIAEIVDVKQVLPEWVDVGLSGATGAQRDAAETHDVYSWSFHASLPETND; -0.487
3. T7P4 (Tuber borchii) (protein) GSHIGPYMSFYASSEDVRTIEEGGRTWLVGRARRADGSWQDIKLDLDNIIGNRDGHLTWGEQNFTQSASDIRFNFEGSNVPVLRAKLRNAAGGEQESDLNLGERLTNNNGDLVFN; -0.202
4. Neuropilin-1 (Homo sapiens), O14786 (protein) FKCMEALGMESGEIHSDQITASSQYSTNWSAERSRLNYPENGWTPGEDSYREWIQVDLGLLRFVTAVGTQGAISKETKKKYYVKTYKIDVSSNGEDWITIKEGNKPVLFQGNTNPTDVVVAVFPKPLITRFVRIKPATWETGISMRFEVYGCKITDYPCSGMLGMVSGLISDSQITSSNQGDRNWMPENIRLVTSRSGWALPPAPHSYINEWLQIDLGEEKIVRGIIIQGGKHRENKVFMRKFKIGYSNNGSDWKMIMDDSKRKAKSFEGNNNYDTPELRTFPALSTRFIRIYPERATHGGLGLRMELLGCEVE; -0.235
5. SP8524D-bot-399-27-399 (Bacteroides ovatus) (protein) DAKYDTLDTHAYIEEALSSTSQKVTVQATGESFTTLNVHLSNLSSTDNHYKLVTDQSVLDTYNHINGTGYIMLPKDYYTLPETITVKAGQYAADALSIALKAFSQEMMKSGESYALPVKLVLQDGSISPMENTGTFVILAESIIEFSAPMFVGAPSLKANKFTESPETYSQYTIEVRFQVANTADRDRAVFKNGGDDANFILLRFEDPQSDNENYKAHSLVQIVGRNRLYLNPSNSFKPNEWQHLALVCDGSNYRLYINGVDSGVLSIPTGATTFSDVNWFCLGDDSYSRWGNCKILMSEARIWSVVRSASQIQNNMTQVSPKSVGLEAYWRFNEGQGNVFEDATGKGHTLTTSATPTWIDGILSTDKSTEWK; 0.045
6. Regenerating Gene I (Homo sapiens), P05451 (protein) MAQTSSYFMLISCLMFLSQSQGQEAQTELPQARISCPEGTNAYRSYCYYFNEDRETWVDADLYCQNMNSGNLVSVLTQAEGAFVASLIKESGTDDFNVWIGLHDPKKNRRWHWSSGSLVSYKSWGIGAPSSVNPGYCVSLTSSTGFQKWKDVPCEDKFSFVCKFKN; 0.291

Origin of measurements: the supplement of paper PMC8728848
